molecular target: Human TAAR 1 (Homo sapiens, UniProt Q96RJ0); assay: cAMP Biotrak EIA functional assay in HEK293 cells stably expressing hTAAR1; format: cell-based; conditions: cAMP production in HEK293 cells stably expressing human TAAR 1 (chimera with rat TAAR 1 N-/C-terminus and 3rd intracellular loop, HA leader); means of at least three independent experiments
Sequence (Q96RJ0 with tags, fused parts or gaps): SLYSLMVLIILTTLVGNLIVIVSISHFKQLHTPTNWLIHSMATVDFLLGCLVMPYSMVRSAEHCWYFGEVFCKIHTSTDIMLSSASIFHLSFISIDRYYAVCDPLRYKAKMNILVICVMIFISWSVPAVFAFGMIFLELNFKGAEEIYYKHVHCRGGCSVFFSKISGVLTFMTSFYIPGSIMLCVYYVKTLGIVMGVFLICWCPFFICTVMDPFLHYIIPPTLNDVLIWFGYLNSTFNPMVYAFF
Sequence (Q923Y9 with tags, fused parts or gaps partner): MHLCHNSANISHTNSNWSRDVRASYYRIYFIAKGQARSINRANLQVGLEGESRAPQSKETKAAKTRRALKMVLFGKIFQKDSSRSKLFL
pEC50: −log10 of the molar value.
Classify as follows. Reported pEC50 greater than or equal to 6: y. Reported pEC50 below: n.

[[record]]
compound = "CNCCc1ccccc1"
target_system = "Human TAAR 1 (Homo sapiens, UniProt Q96RJ0)"
group = "y"

[[record]]
compound = "NCCc1c[nH]c2ccc(O)cc12"
target_system = "Human TAAR 1 (Homo sapiens, UniProt Q96RJ0)"
group = "n"

[[record]]
compound = "NCC(O)c1ccc(O)cc1 (centres unmarked)"
target_system = "Human TAAR 1 (Homo sapiens, UniProt Q96RJ0)"
group = "n"

[[record]]
compound = "NCCc1c[nH]c2ccccc12"
target_system = "Human TAAR 1 (Homo sapiens, UniProt Q96RJ0)"
group = "n"

[[record]]
compound = "CNCCc1ccc(O)cc1"
target_system = "Human TAAR 1 (Homo sapiens, UniProt Q96RJ0)"
group = "n"

[[record]]
compound = "NC[C@H](O)c1ccc(O)c(O)c1 [Norepinephrine, norepinephrine]"
target_system = "Human TAAR 1 (Homo sapiens, UniProt Q96RJ0)"
group = "n"

[[record]]
compound = "NCCc1c[nH]cn1"
target_system = "Human TAAR 1 (Homo sapiens, UniProt Q96RJ0)"
group = "n"

[[record]]
compound = "NCCc1ccccc1"
target_system = "Human TAAR 1 (Homo sapiens, UniProt Q96RJ0)"
group = "y"


----------
Measured Emax values are reported for all entries that follow.
biological target: Human TAAR 1 (Homo sapiens, UniProt Q96RJ0); test: cAMP Biotrak EIA functional assay in HEK293 cells stably expressing hTAAR1; format: cell-based; details: HEK293, read-out: Max (maximal response as percentage of the maximal cAMP levels induced by p-TYR)
measurement_type: Emax (%)

[[record]]
molecule = "NCCc1ccccc1"
test_result = 100

[[record]]
molecule = "NCCc1ccc(O)c(O)c1"
test_result = 50

[[record]]
molecule = "NCCc1c[nH]c2ccccc12"
test_result = 100

[[record]]
molecule = "NCC(O)c1ccc(O)cc1 (stereo not shown)"
test_result = 100

